Reference source for all entries: patent US20090048164A1

Molecular target: T1, Bcl-w
T1 chain: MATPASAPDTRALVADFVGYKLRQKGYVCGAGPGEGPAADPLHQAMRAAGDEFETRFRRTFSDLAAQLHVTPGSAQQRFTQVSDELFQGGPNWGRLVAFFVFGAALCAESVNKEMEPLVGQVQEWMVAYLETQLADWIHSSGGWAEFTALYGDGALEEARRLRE
Experiment: competition phage ELISA
READOUT: Fold/wt
Returns: string containing the number followed by the unit.

# annotated cases, reported Fold/wt shown
- QEDIIRNIARHLAQVGDSMDRSIPPG (M13 phage display: FLAG-26mer-GGGT-g3(249-406); also called wtBid) [Bid BH3 wild type, phage-displayed]: 1 fold
- QADIIRNIARHLAQVGDSMDRSIPPG (M13 phage display: FLAG-26mer-GGGT-g3(249-406)) [Bid BH3 E2A, phage-displayed]: 2 fold
- QEDIIRNIARHLAQVGDSMDRAIPPG (M13 phage display: FLAG-26mer-GGGT-g3(249-406)) [Bid BH3 S22A, phage-displayed]: 1 fold
- QEDIARNIARHLAQVGDSMDRSIPPG (M13 phage display: FLAG-26mer-GGGT-g3(249-406)) [Bid BH3 I5A, phage-displayed]: 2 fold
- QEDIIRAIARHLAQVGDSMDRSIPPG (M13 phage display: FLAG-26mer-GGGT-g3(249-406)) [Bid BH3 N7A, phage-displayed]: 1 fold

In: Give its Fold/wt value. Item: QEDIIRNIARHLAAVGDSMDRSIPPG (M13 phage display: FLAG-26mer-GGGT-g3(249-406)) [Bid BH3 Q14A, phage-displayed]
Out: 1 fold

In: Request the reported Fold/wt associated with QEDIIRNIARHLAQVGDSMARSIPPG (M13 phage display: FLAG-26mer-GGGT-g3(249-406)) [Bid BH3 D20A, phage-displayed]
Out: 1 fold
